Recorded IC50 by entry
- ASSAYED SYSTEM: HCV NS5B polymerase (His-tagged, C-terminal 21 amino acid deleted NS5B, HC-J4) (Hepatitis C virus genotype 1b, UniProt O92972)
- Construct: The cDNA encoding NS5B amino acid 1-570 (HC-J4, genotype 1b); His tag (His6, from pET-21b) (C); made in house; host or cells: E. coli BL21 (DE3)
- Sequence (O92972 2417-3000, looked up, stated change not applied): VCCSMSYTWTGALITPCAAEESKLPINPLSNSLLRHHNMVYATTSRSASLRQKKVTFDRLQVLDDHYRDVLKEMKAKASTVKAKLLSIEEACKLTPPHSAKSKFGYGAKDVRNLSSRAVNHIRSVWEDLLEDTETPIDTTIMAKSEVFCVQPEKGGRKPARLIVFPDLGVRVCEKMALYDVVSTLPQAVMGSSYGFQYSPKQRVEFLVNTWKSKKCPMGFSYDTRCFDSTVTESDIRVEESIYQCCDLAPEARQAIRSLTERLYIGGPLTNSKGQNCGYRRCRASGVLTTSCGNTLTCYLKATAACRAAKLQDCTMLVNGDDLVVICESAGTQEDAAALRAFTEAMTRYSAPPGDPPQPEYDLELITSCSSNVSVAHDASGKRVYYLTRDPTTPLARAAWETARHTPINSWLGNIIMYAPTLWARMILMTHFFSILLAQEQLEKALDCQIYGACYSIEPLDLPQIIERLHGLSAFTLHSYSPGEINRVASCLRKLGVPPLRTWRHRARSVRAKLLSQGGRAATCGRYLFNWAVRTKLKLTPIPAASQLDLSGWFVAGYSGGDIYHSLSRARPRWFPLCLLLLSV
- PROCEDURE TEXT: NS5b polymerase assay (biochemical RdRp assay, 3H-GTP incorporation, SPA beads)
- Parameters: species or system HCV genotype 1b
- EXPERIMENTAL CONTEXT: NS5B Polymerase Assay IC50 (μM)
MEASURED ENDPOINT: IC50

MOLECULE	READOUT VALUE
O=C1CC(c2ccc(Cl)cc2)CC2=C1C(c1ccccc1Cl)Nc1ccccc1N2 (stereo not shown)	> 42.7 µM
O=C1C[C@@H](c2ccc(Cl)cc2)CC2=C1[C@H](c1cccnc1)Nc1ccccc1N2	> 42.7 µM
COc1ccc([C@@H]2CC(=O)C3=C(C2)Nc2ccccc2N[C@H]3c2cccc3ccccc23)cc1OC	> 42.7 µM
CC1(C)CC(=O)C2=C(C1)Nc1ccccc1NC2c1ccc(OCc2ccccc2)c(Cl)c1 (stereo not shown)	3.63 µM

----------
List of melting point values.
MEASURED ENDPOINT: melting point

COMPOUND	MEASURED ENDPOINT	READOUT VALUE
CC(=O)N1c2ccccc2NC2=C(C(=O)CC(C)(C)C2)C1c1ccc(OCc2ccccc2)c(Cl)c1 (stereo not shown) [compound 139]	melting point	197 °C
CC(=O)N1c2c(CO)cccc2NC2=C(C(=O)CC(C)(C)C2)C1c1ccc(Cl)cc1Cl (stereo not shown)	melting point	200 °C
CC(=O)N1c2ccc(CN(C)C)cc2NC2=C(C(=O)CC(C)(C)C2)C1c1ccc(Cl)cc1Cl (stereo not shown)	melting point	> 260 °C
CC(=O)N1c2ccccc2NC2=C(C(=O)CC(C)(C)C2)C1c1ccc(C(F)(F)F)cc1 (stereo not shown) [compound 120]	melting point	> 250 °C

----------
- ASSAYED SYSTEM: HCV NS5B polymerase (His-tagged, C-terminal 21 amino acid deleted NS5B, HC-J4) (Hepatitis C virus genotype 1b)
- Construct: The cDNA encoding NS5B amino acid 1-570 (HC-J4, genotype 1b); His tag (His6, from pET-21b) (C); made in house; host or cells: E. coli BL21 (DE3)
- PROCEDURE TEXT: NS5b polymerase assay (biochemical RdRp assay, 3H-GTP incorporation, SPA beads)
- Design: species or system HCV genotype 1b
- EXPERIMENTAL CONTEXT: NS5B Polymerase Assay IC50, 200 nM enzyme, 3H-GTP incorporation, 2 h at 25° C.
Each item that follows carries a reported IC50.

COMPOUND	IC50
CC(=O)N1c2ccccc2NC2=C(C(=O)CC(C)(C)C2)C1c1ccc(Cl)cc1Cl (single isomer, unassigned) [compound 38]	2.84 µM
COc1ccc(C2C3=C(CC(c4cccs4)CC3=O)Nc3ccccc3N2C(=O)Nc2ccc(Cl)c(Cl)c2)cc1 (stereo not drawn)	> 33.3 µM
CC(=O)N1c2ccccc2NC2=C(C(=O)CC(C)(C)C2)C1c1ccc(Br)s1 (stereo not drawn)	> 42.7 µM
CCCCOc1ccc(C2C3=C(CC(C)(C)CC3=O)Nc3ccccc3N2C(C)=O)cc1 (stereo not drawn)	> 42.7 µM
COc1c(Cl)cc(Cl)cc1C1C2=C(CC(C)(C)CC2=O)Nc2ccccc2N1C(=O)C(C)C (stereo not drawn)	> 42.7 µM
CCCCC(=O)N1c2ccccc2NC2=C(C(=O)CC(C)(C)C2)C1c1ccc(F)cc1 (stereo not drawn)	> 33.3 µM
CC1(C)CC(=O)C2=C(C1)Nc1ccccc1N(C(=O)c1ccccc1)C2c1ccc([N+](=O)[O-])cc1 (stereo not drawn)	> 42.7 µM
Cc1ccc(C2CC(=O)C3=C(C2)Nc2ccccc2N(C(=O)CCC(=O)O)C3c2ccc(C)cc2)cc1 (stereo not drawn)	29.9 µM
CC(=O)N1c2ccccc2NC2=C(C(=O)CC(C)(C)C2)[C@@H]1c1ccc(OCc2ccccc2)cc1 (single isomer, unassigned)	92.5 µM
COc1ccc(C2C3=C(CC(c4ccco4)CC3=O)Nc3ccccc3N2C(C)=O)cc1OC (stereo not drawn)	> 42.7 µM
CC1(C)CC(=O)C2=C(C1)Nc1ccccc1N(C(=O)Cc1ccccc1)C2c1ccc(Cl)cc1Cl (stereo not drawn)	123 µM
CCC(=O)N1c2ccccc2NC2=C(C(=O)CC(C)(C)C2)C1c1cc(OC)ccc1OC (stereo not drawn)	> 42.7 µM
CC(=O)N1c2ccccc2NC2=C(C(=O)CC(C)(C)C2)C1c1ccc(Cl)cc1Cl (single isomer, unassigned) [compound 35]	1.28 µM
CCC(=O)N1c2ccccc2NC2=C(C(=O)CC(C)(C)C2)C1c1cccc(Cl)c1Cl (stereo not drawn)	> 42.7 µM
CCCOc1cccc(C2C3=C(CC(C)(C)CC3=O)Nc3ccccc3N2C(C)=O)c1 (stereo not drawn)	> 42.7 µM

----------
- ASSAYED SYSTEM: HCV NS5B polymerase (His-tagged, C-terminal 21 amino acid deleted NS5B, HC-J4) (Hepatitis C virus genotype 1b, UniProt O92972)
- Construct: The cDNA encoding NS5B amino acid 1-570 (HC-J4, genotype 1b); His tag (His6, from pET-21b) (C); made in house; host or cells: E. coli BL21 (DE3)
- PROCEDURE TEXT: NS5b polymerase assay (biochemical RdRp assay, 3H-GTP incorporation, SPA beads)
- Design: species or system HCV genotype 1b
- EXPERIMENTAL CONTEXT: NS5B Polymerase Assay IC50 (μM)

COMPOUND	IC50
CC1(C)CC(=O)C2=C(C1)Nc1ccccc1NC2c1ccc(OCc2ccccc2)cc1 (stereo not shown) [compound 426]	30.8 µM
COc1cccc(C2Nc3ccccc3NC3=C2C(=O)CC(c2ccccc2)C3)c1 (stereo not shown) [compound 330]	> 42.7 µM
CC1(C)CC(=O)C2=C(C1)Nc1ccccc1NC2c1cc(Cl)ccc1Cl (stereo not shown) [compound 438]	> 133 µM
COc1ccc([C@@H]2CC(=O)C3=C(C2)Nc2ccccc2N[C@H]3c2cc3c(cc2Br)OCO3)cc1 [compound 486]	> 42.7 µM

----------
Attribute: IC50
- ASSAYED SYSTEM: HCV NS5B polymerase (His-tagged, C-terminal 21 amino acid deleted NS5B, HC-J4) (Hepatitis C virus genotype 1b)
- Construct: The cDNA encoding NS5B amino acid 1-570 (HC-J4, genotype 1b); His tag (His6, from pET-21b) (C); made in house; host or cells: E. coli BL21 (DE3)
- PROCEDURE TEXT: NS5b polymerase assay (biochemical RdRp assay, 3H-GTP incorporation, SPA beads)
- Set-up: species or system HCV genotype 1b
- EXPERIMENTAL CONTEXT: NS5B Polymerase Assay IC50, 200 nM enzyme, 3H-GTP incorporation, 2 h at 25° C.

COMPOUND	IC50
CC(=O)N1c2ccccc2NC2=C(C(=O)CC(C)(C)C2)C1c1ccc(-c2cccc(C(=O)O)c2)o1 (stereo not shown)	> 42.7 µM
COc1ccc(C2C3=C(CC(C)(C)CC3=O)Nc3ccccc3N2C(=O)C(F)(F)F)c(OC)c1 (stereo not shown)	> 42.7 µM
CC(=O)N1c2ccc(C(=O)NCCN3CCOCC3)cc2NC2=C(C(=O)CC(C)(C)C2)C1c1ccc(Cl)cc1Cl (stereo not shown)	> 133 µM
CCCCC(=O)N1c2ccccc2NC2=C(C(=O)CC(C)(C)C2)C1c1ccc(-c2cccc([N+](=O)[O-])c2)o1 (stereo not shown)	> 42.7 µM
CC(=O)N1c2cccc(Br)c2NC2=C(C(=O)CC(C)(C)C2)C1c1ccc(Cl)cc1Cl (stereo not shown)	6.11 µM
CC(=O)N1c2ccccc2NC2=C(C(=O)CC(C)(C)C2)C1c1cccc(Oc2ccccc2)c1 (stereo not shown)	54.7 µM
CC(=O)N1c2ccccc2NC2=C(C(=O)CC(c3ccccc3OCc3ccccc3)C2)C1c1cccc(OC(=O)c2ccc(Cl)cc2)c1 (single isomer, unassigned)	> 42.7 µM

----------
- ASSAYED SYSTEM: HCV NS5B polymerase (His-tagged, C-terminal 21 amino acid deleted NS5B, HC-J4) (Hepatitis C virus genotype 1b)
- Construct: The cDNA encoding NS5B amino acid 1-570 (HC-J4, genotype 1b); His tag (His6, from pET-21b) (C); made in house; host or cells: E. coli BL21 (DE3)
- PROCEDURE TEXT: NS5b polymerase assay (biochemical RdRp assay, 3H-GTP incorporation, SPA beads)
- Parameters: species or system HCV genotype 1b
- EXPERIMENTAL CONTEXT: 200 nM enzyme, 3H-GTP incorporation, 2 h at 25° C.; read-out: NS5B Polymerase Assay IC50
MEASURED ENDPOINT: IC50

COMPOUND	READOUT VALUE
COc1ccc(C2CC(=O)C3=C(C2)Nc2ccccc2N(C(=O)C(F)(F)F)C3c2ccc(Cl)cc2)cc1 (mixture of isomers)	> 33.3 µM
CC(=O)N1c2ccccc2NC2=C(C(=O)CC(c3ccccc3OCc3ccccc3)C2)C1C(Br)=Cc1ccccc1 (stereo not shown)	> 133 µM
CC(=O)N1c2ccccc2NC2=C(C(=O)CC(c3ccccc3)C2)C1c1ccc(C)cc1 (mixture of isomers)	> 42.7 µM
CC1(C)CC(=O)C2=C(C1)Nc1ccccc1N(C(=O)c1ccccc1)C2/C=C/c1ccccc1 (stereo not shown)	> 42.7 µM
CC(=O)N1c2ccccc2NC2=C(C(=O)CC(C)(C)C2)C1c1ccc(OCc2ccccc2)cc1 (stereo not shown)	5.68 µM
COc1ccc(C2CC(=O)C3=C(C2)Nc2ccccc2N(C(=O)C(F)(F)F)C3c2ccc(C)cc2)cc1 (mixture of isomers)	> 33.3 µM
CCCCCC(=O)N1c2ccccc2NC2=C(C(=O)CC(c3ccc(Cl)cc3)C2)C1c1ccc(OC)cc1 (mixture of isomers)	> 33.3 µM
